Numbers sourced from patent US12023323B2.

Exercise: for every item that follows, state its recorded CC50 at 72 h.
# PROTOCOL_TEXT: Cellular toxicity, CellTiter-Glo, Vero cells
# DETAILS: African green monkey
Return type: number; implicit unit µM.

Quick note, CC50 at 72 h for c1ccc2c(CNCc3cc(CNCc4c[nH]c5ccccc45)cc(-c4cc(CNCc5c[nH]c6ccccc56)cc(CNCc5c[nH]c6ccccc56)c4)c3)c[nH]c2c1 landed at 39.8

Consider c1cc(CNCc2cc(CNCc3cc[nH]c3)cc(-c3cc(CNCc4cc[nH]c4)cc(CNCc4cc[nH]c4)c3)c2)c[nH]1 . Its measured CC50 at 72 h is 316

Value of measured CC50 at 72 h for the entry Oc1ccccc1CNCc1cc(CNCc2ccccc2O)cc(-c2cc(CNCc3ccccc3O)cc(CNCc3ccccc3O)c2)c1 : 4.6

Noted for Oc1cccc(CNCc2cc(CNCc3cccc(O)c3)cc(-c3cc(CNCc4cccc(O)c4)cc(CNCc4cccc(O)c4)c3)c2)c1 : its CC50 at 72 h reads 207

The compound listed as c1ccc(CNCc2cc(CNCc3ccccn3)cc(-c3cc(CNCc4ccccn4)cc(CNCc4ccccn4)c3)c2)nc1 has a reported CC50 at 72 h of 178

// CC50 at 72 h value for c1ccc2[nH]c(CNCc3cc(CNCc4cc5ccccc5[nH]4)cc(-c4cc(CNCc5cc6ccccc6[nH]5)cc(CNCc5cc6ccccc6[nH]5)c4)c3)cc2c1 : 29.8

---

Exercise: for every item that follows, state its recorded Ka (M^−1) with α-Man.
# PROTOCOL_TEXT: 1H NMR titration with octyloxy pyranoside α-Man
# Assay type: binding
# DETAILS: NMR titrations in CD2Cl2 at 298 K, 1:1 binding
Dear colleague, please return just the value in M⁻¹, with no unit written.

The recorded Ka (M^−1) with α-Man for c1c[nH]c(CNCc2cc(CNCc3ccc[nH]3)cc(-c3cc(CNCc4ccc[nH]4)cc(Cn4cc(COCCOCCOCCOCc5cn(Cc6cc(CNCc7ccc[nH]7)cc(-c7cc(CNCc8ccc[nH]8)cc(CNCc8ccc[nH]8)c7)c6)nn5)nn4)c3)c2)c1 is 2600

// field: Ka (M^−1) with α-Man; key: c1coc(CNCc2cc(CNCc3ccco3)cc(-c3cc(CNCc4ccco4)cc(CNCc4ccco4)c3)c2)c1 ; value = 1400

Field Ka (M^−1) with α-Man (entry Oc1cccc(CNCc2cc(CNCc3cccc(O)c3)cc(-c3cc(CNCc4cccc(O)c4)cc(CNCc4cccc(O)c4)c3)c2)c1 ) reads 150

Record summary for c1cncc(CNCc2cc(CNCc3cccnc3)cc(-c3cc(CNCc4cccnc4)cc(CNCc4cccnc4)c3)c2)c1 : reported Ka (M^−1) with α-Man = 490

Oc1ccccc1CNCc1cc(CNCc2ccccc2O)cc(-c2cc(CNCc3ccccc3O)cc(CNCc3ccccc3O)c2)c1 yielded Ka (M^−1) with α-Man of 280

Ka (M^−1) with α-Man measured on c1ccc2[nH]c(CNCc3cc(CNCc4cc5ccccc5[nH]4)cc(-c4cc(CNCc5cc6ccccc6[nH]5)cc(CNCc5cc6ccccc6[nH]5)c4)c3)cc2c1 = 11000

Record c1ccc2c(CNCc3cc(CNCc4c[nH]c5ccccc45)cc(-c4cc(CNCc5c[nH]c6ccccc56)cc(CNCc5c[nH]c6ccccc56)c4)c3)c[nH]c2c1 , field Ka (M^−1) with α-Man: 290
